target: pooled human IgG (human IgG1,2,3 and 4)
propertyMeasured: Enzyme Activity Endpoint Assay: Fab′2 (ng/µL)

{"protein": "PRT-85 (protein) MANQEIRYSEVTPKTITSVWTKGVTPPADFTQGEDVFHAPYKPNQGWYDINKTFNGKDNLLCGAATAGNMLHWWFDQNKEQIEAYLKKHPEKQKIMFGDQELLDVRKAINTKDDQTDSKLFNYFKDKAFPNLSARRLGVMPDHVLDMFINGYRLNVTKTQTTDVNRTYQTKDKRGGFFDAVFTRGDQSKLLTNRHDFKEKNLKEISDLIKKELTEGKALGLSHTYANVRINHVINLWGADFDSEGNLKAIYVTDSDSNASIGMKKYYVGVNSAGKVAISAKEIKGENIGAQVLGLYTLSTGQDIWNQTN", "propertyMeasured": "Enzyme Activity Endpoint Assay: Fab′2", "readoutUnits": "ng/µL", "numericValue": 0}
{"protein": "PRT-103 (protein) MANQEIRYSEVTPYHVTSVWTKGVTPPAKFTQGEDVFHAPYVANQGWYDITKTFNGKDDLLCGAATAGNMLHWWFDQNKEKIEAYLKKHPDKQKIMFGDQELLDVRKVINTKGSQTNSELFNYFRDKAFPGLSARRIGVMPDLVLDMFINGYYLNVYKTQTTDVNRTYQEKDRRGGIFDAVFTRGDQSKLLTSRHDFKEKNLKEISDLIKKELTEGKALGLSHTYANVRINHVINLWGADFDSNGNLKAIYVTDSDSNASIGMKKYFVGVNSAGKVAISAKEIKEDNIGAQVLGLFTLSTGQDSWNQTN", "propertyMeasured": "Enzyme Activity Endpoint Assay: Fab′2", "readoutUnits": "ng/µL", "numericValue": 544}

Sourced from patent US20250027068
